Tested on: THRa homodimer (NR concentration 90 nM)
Assay Info: PBM binding z-score (relative to random genomic background probes); higher = stronger binding; sequences stand for … in GC…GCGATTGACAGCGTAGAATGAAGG
Assign Condition met whenever PBM binding z-score does not fall below 0.9; assign Condition not met whenever it does.

Is PBM binding z-score for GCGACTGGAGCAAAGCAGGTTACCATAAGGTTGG at or above 0.9?
Condition not met

One more sequence: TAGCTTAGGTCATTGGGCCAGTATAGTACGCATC
Condition met

One more sequence: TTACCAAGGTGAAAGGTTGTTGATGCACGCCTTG
Condition not met

One more sequence: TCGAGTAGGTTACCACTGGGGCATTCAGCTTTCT
Condition not met

One more sequence: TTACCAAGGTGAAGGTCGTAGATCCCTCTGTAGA
Condition not met

One more sequence: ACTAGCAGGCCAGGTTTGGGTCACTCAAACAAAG
Condition met

One more sequence: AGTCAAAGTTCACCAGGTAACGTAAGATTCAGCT
Condition not met

One more sequence: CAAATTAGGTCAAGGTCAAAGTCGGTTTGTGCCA
Condition met

One more sequence: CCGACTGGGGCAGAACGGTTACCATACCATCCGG
Condition not met

One more sequence: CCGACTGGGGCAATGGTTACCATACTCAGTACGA
Condition not met

One more sequence: CCTTAAGGGTCAAGGTTATAGCACGGGTGGTACG
Condition met

One more sequence: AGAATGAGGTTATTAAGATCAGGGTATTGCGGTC
Condition not met

One more sequence: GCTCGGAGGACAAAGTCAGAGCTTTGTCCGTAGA
Condition not met

One more sequence: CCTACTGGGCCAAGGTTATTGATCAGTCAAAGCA
Condition not met

One more sequence: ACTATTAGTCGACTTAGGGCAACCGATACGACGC
Condition not met

One more sequence: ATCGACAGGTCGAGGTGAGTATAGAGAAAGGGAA
Condition not met

One more sequence: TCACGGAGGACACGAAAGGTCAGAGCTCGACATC
Condition met

One more sequence: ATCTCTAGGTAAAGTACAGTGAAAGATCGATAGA
Condition not met

One more sequence: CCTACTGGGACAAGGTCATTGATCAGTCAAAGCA
Condition met

One more sequence: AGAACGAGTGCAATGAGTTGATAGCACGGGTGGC
Condition not met

One more sequence: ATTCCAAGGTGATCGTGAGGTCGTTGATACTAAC
Condition met

One more sequence: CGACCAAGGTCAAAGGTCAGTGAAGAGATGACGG
Condition met

One more sequence: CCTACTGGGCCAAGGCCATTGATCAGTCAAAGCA
Condition not met

One more sequence: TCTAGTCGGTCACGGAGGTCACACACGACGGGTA
Condition met

One more sequence: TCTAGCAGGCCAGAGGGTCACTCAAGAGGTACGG
Condition not met

One more sequence: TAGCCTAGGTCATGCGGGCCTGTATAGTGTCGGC
Condition met

One more sequence: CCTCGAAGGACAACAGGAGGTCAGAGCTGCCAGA
Condition not met

One more sequence: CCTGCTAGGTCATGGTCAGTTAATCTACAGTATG
Condition met

One more sequence: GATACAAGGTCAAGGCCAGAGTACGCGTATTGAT
Condition met

One more sequence: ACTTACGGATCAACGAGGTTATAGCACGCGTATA
Condition met

One more sequence: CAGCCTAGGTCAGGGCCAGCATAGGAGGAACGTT
Condition not met

One more sequence: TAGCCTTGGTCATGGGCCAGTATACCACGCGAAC
Condition not met

One more sequence: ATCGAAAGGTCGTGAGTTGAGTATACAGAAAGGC
Condition not met

One more sequence: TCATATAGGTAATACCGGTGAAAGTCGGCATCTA
Condition not met

One more sequence: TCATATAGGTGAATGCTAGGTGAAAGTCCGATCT
Condition not met

One more sequence: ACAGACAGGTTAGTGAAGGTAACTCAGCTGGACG
Condition not met

One more sequence: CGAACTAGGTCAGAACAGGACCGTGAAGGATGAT
Condition not met

One more sequence: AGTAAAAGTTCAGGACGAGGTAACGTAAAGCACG
Condition met

One more sequence: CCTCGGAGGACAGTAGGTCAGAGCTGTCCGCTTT
Condition not met

One more sequence: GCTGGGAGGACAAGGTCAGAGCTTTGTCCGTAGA
Condition met

One more sequence: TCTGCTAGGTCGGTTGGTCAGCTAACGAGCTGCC
Condition not met

One more sequence: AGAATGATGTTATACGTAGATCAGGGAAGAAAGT
Condition not met

One more sequence: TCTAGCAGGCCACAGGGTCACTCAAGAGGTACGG
Condition met

One more sequence: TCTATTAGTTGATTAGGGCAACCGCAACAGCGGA
Condition not met

One more sequence: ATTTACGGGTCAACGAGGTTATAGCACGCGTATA
Condition met

One more sequence: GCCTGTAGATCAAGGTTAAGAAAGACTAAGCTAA
Condition not met

One more sequence: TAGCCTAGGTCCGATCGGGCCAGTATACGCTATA
Condition not met

One more sequence: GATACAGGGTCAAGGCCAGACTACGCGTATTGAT
Condition met

One more sequence: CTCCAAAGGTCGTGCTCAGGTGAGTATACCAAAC
Condition met

One more sequence: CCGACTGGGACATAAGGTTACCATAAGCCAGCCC
Condition met

One more sequence: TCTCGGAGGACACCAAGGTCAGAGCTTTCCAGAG
Condition met

###

Test system: RARa:RXR (NR concentration 270 nM, RXRa partner concentration 90 nM)
Assay Info: PBM binding z-score (relative to random genomic background probes); higher = stronger binding; sequences stand for … in GC…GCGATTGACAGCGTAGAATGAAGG
Assign 1.0 whenever PBM binding z-score does not fall below 2; assign 0.0 whenever it does.

Is PBM binding z-score for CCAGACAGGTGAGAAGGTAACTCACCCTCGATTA at or above 2?
0.0

One more sequence: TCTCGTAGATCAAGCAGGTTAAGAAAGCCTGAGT
0.0

One more sequence: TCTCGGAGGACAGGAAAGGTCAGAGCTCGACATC
1.0

One more sequence: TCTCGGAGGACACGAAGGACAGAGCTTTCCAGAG
0.0

One more sequence: GCTAGTTGGTCAGTAAAAGGTCACACACCGGTCG
1.0

One more sequence: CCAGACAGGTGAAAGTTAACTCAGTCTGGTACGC
0.0

One more sequence: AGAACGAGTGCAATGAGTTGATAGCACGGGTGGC
0.0

One more sequence: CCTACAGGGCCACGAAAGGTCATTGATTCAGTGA
1.0

One more sequence: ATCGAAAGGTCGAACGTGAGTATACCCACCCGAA
1.0

One more sequence: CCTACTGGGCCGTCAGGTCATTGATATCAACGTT
0.0

One more sequence: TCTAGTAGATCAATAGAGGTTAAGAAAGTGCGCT
0.0

One more sequence: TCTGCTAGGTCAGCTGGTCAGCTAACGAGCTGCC
0.0

One more sequence: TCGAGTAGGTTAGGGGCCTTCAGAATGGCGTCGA
0.0

One more sequence: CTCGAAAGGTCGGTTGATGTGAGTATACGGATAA
0.0

One more sequence: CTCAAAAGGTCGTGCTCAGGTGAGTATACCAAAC
1.0

One more sequence: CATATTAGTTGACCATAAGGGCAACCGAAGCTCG
0.0

One more sequence: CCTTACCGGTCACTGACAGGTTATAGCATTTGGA
0.0

One more sequence: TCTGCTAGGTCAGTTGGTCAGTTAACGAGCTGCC
0.0

One more sequence: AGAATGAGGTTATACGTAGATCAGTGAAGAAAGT
0.0

One more sequence: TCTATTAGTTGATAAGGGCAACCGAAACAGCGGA
0.0

One more sequence: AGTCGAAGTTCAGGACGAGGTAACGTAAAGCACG
0.0

One more sequence: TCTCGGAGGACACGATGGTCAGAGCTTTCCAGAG
0.0

One more sequence: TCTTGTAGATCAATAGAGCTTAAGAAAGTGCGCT
0.0

One more sequence: GTACTAAGGTGAATAGGTCGTTGATGAGTAGGCG
1.0

One more sequence: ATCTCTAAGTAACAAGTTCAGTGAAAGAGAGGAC
0.0

###

System: PPARg:RXRa 270nM:90nM, anti-RXR (NR concentration 270 nM, RXRa partner concentration 90 nM)
Assay Info: PBM binding z-score (relative to random genomic background probes); higher = stronger binding; sequences stand for … in GC…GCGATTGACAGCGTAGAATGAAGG
Experimental Readout: PBM binding z-score
# output: bare number, no unit

Dear colleague, I am looking for the recorded PBM binding z-score of the following sequence: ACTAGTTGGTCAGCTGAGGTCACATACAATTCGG
1.98

One more sequence: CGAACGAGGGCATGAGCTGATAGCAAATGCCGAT
0.67

One more sequence: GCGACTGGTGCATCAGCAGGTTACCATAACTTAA
-0.215

One more sequence: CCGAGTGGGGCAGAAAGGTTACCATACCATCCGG
2.79

One more sequence: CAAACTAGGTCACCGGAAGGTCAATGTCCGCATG
7.81

One more sequence: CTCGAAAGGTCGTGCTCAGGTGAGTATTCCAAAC
3.47

One more sequence: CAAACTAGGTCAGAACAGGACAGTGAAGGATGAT
4.56

One more sequence: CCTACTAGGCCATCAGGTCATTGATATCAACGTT
4

One more sequence: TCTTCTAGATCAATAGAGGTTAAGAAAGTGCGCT
2

One more sequence: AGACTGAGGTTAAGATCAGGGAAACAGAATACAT
1.18

One more sequence: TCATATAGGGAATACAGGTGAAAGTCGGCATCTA
2.76

One more sequence: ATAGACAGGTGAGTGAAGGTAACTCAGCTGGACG
0.369

One more sequence: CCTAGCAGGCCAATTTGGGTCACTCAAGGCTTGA
0.917

One more sequence: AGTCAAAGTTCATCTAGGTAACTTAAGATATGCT
6.26

One more sequence: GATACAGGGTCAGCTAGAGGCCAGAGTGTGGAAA
3.34

One more sequence: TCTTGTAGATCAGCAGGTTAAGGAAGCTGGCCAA
1.47

One more sequence: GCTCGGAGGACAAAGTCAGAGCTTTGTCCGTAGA
-0.786

One more sequence: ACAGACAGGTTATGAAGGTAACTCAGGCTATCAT
0.402

One more sequence: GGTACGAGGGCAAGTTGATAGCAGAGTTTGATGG
0.456

One more sequence: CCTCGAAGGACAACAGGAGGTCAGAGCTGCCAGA
0.229

One more sequence: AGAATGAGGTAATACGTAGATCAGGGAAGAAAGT
0.841

One more sequence: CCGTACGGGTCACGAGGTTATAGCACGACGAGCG
6.37

One more sequence: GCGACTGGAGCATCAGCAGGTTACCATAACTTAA
-0.223

One more sequence: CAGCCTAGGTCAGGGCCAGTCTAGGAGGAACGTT
0.9

One more sequence: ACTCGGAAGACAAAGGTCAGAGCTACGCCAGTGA
4.75

One more sequence: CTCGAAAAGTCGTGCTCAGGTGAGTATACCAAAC
-0.203

One more sequence: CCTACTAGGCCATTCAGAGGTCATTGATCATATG
3.87

One more sequence: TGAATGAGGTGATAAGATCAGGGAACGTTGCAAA
1.24

One more sequence: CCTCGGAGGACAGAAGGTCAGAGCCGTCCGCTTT
0.948

One more sequence: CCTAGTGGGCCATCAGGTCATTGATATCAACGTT
3.69

One more sequence: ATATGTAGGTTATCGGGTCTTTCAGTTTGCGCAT
4.68

One more sequence: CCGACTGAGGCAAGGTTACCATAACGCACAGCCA
0.236

One more sequence: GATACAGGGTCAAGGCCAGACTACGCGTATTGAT
5.88

One more sequence: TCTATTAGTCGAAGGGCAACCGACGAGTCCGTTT
2.2

One more sequence: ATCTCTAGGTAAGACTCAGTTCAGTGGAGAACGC
0.28

One more sequence: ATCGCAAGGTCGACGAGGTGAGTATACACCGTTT
0.926

One more sequence: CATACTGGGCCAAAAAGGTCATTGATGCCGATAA
3.82

One more sequence: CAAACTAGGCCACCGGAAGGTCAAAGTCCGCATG
5.14

One more sequence: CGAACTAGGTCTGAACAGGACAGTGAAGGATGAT
-0.276

One more sequence: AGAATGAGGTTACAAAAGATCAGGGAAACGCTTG
2.26

One more sequence: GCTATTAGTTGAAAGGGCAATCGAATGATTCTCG
4.24

One more sequence: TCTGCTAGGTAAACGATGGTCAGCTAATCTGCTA
0.636

One more sequence: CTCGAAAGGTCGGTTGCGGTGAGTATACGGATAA
0.893

One more sequence: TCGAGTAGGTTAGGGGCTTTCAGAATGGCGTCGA
1.76

One more sequence: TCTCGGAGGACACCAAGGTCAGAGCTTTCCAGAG
1.65

One more sequence: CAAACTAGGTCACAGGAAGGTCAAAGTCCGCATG
7.57

One more sequence: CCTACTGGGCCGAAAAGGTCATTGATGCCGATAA
3.34

One more sequence: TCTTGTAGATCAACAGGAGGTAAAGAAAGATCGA
1.19

One more sequence: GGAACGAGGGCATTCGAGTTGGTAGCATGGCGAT
0.442

One more sequence: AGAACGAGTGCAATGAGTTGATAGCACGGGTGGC
-0.327

One more sequence: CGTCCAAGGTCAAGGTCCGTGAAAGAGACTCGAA
5.3
